measurement_target: recombinant human TFPI (tissue factor pathway inhibitor) (human, UniProt P10646 29-304)
test_method_notes: cell-based or functional assay
readout_label: A405, TF/FVIIa/FX complex assay, Ab 12.5 nM
Number, no unit, nothing else.

Report A405, TF/FVIIa/FX complex assay, Ab 12.5 nM for clone A67 (antibody, V domains shown) VH: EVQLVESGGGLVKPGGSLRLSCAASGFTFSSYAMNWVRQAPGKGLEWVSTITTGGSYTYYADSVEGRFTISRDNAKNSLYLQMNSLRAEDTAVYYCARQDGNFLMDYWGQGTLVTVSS VL: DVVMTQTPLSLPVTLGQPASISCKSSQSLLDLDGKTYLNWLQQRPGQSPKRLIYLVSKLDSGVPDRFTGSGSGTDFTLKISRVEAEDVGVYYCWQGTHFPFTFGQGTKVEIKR
0.33

The reported measurements were obtained from patent US20180030151A1.
